Assay: probe aNog binding to arrayed compounds – biochemical, biotinylated probe, 635/667 nm fluorescence, primary screen (AID 1115);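 note: probe is biotinylated aNog protein used at 0.15 µg/mL for 1 h at 4 C; z-score combines 667 nm fluorescence of each spot with its signal to noise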
Settings: small-molecule microarray, higher = more signal
OBSERVATION TYPE: composite z-score
Answer using only a numeral; do not append any unit.

Name the reported composite z-score value associated with the compound `COc1ccc([Si](C)(C)[C@@H]2[C@@H](CCO)O[C@]3(C(=O)N(Cc4ccccc4)c4ccc(N5C(=O)COc6ccccc65)cc43)[C@H]2C)cc1`
-0.194

What do you have for `COCCOC(=O)N1C(=O)[C@@]2(c3cc(C#CC4(O)CCCCCC4)ccc31)[C@H](C(=O)N1CCc3cc(OC)c(OC)cc3C1)[C@H]1C(=O)O[C@H](c3ccccc3)[C@H](c3ccccc3)N1[C@@H]2c1ccccc1OCCO` ?
0.0158

What do you have for `C[N+](C)(C)CCCC[C@@H]1NC(=O)[C@@H]2C[C@H](C(=O)NCCCCCNC(=O)CS)[C@H](c3cccc(OCCO)c3)N2C1=O` ?
0.0197

What do you have for `CO[C@H]1O[C@H](CO)[C@@H](OC(=O)Nc2cccc(F)c2)[C@H](OC(=O)Nc2ccc3c(c2)OCO3)[C@H]1OC(=O)Nc1ccc2c(c1)OCO2` ?
0.201

What do you have for CC(C)N1CC=CC23O[C@@H]4C=CCOC(=O)[C@@H]4[C@H]2C(=O)N(CCCCCCO)[C@@H]3C1=O (some centres undefined) ?
-0.223

What do you have for `COCC1=C([C@H](O)CCc2ccccc2)[C@H](CO)[C@@H]2C(=O)N(C)C(=O)[C@@H]2C1` ?
-0.172

What do you have for `C=C(/C(=C/C[C@@H](OC(C)=O)c1ccccc1OCCO)c1cnc2ccccc2c1)C(C)C` ?
0.291

What do you have for `C[N+](C)(C)CCCC[C@@H]1NC(=O)[C@@H]2C[C@H](C(=O)O)[C@H](c3cccc(OCCO)c3)N2C1=O` ?
-0.326

What do you have for `COc1ccc(C#Cc2ccc3c(c2)[C@]2(C(=O)N3)[C@H](c3ccc(OCCO)cc3)N3[C@H](c4ccccc4)[C@H](c4ccccc4)OC(=O)[C@H]3[C@@H]2C(=O)N2CCN(c3ncccn3)CC2)cc1` ?
-0.474

What do you have for `C=CCOc1ccc([C@@H]2CC=C(C(=O)OCC)[C@H](c3cccc(Br)c3)N2S(=O)(=O)c2ccc(C)cc2)cc1` ?
-0.54

What do you have for O=C1NC(=O)C2C1C=CC(C(O)c1ccc(-c3ccccc3)s1)N2Nc1ccccn1 (centres undefined) ?
-0.0545

What do you have for `O=C(N1CCOCC1)[C@@]1(CCS(=O)(=O)c2ccccc2)COC(c2ccc(OCCCO)cc2)=N1` ?
-0.824

What do you have for `COC(=O)[C@]1(Cc2ccccc2CN=[N+]=[N-])N=C(c2ccc(OCCCO)cc2)O[C@@H]1c1ccccc1CN=[N+]=[N-]` ?
0.589

What do you have for `COc1ccc([Si](C)(C)[C@H]2[C@H](CC(=O)N3CCC[C@H]3CO)O[C@@]3(C(=O)N(Cc4ccc(N5C(=O)c6cccc7cccc5c67)cc4)c4ccccc43)[C@@H]2C)cc1` ?
0.473

###

Exercise: for every item that follows, state its recorded composite z-score.
System: XIP peptide (Xip251-270)
Assay: compounds binding XIP fragment 251-270 – biochemical, small-molecule microarray, fluorescence 635/667 nm, 0.5 µg/mL protein, primary screen (AID 1183)
Settings: fluorescence 635 nm, higher = more signal

Name the reported composite z-score value associated with the molecule `C=C(/C(=C/C[C@@H](OC(=O)c1ccncc1)c1ccccc1OCCO)c1cnc2ccccc2c1)C(C)C`
0.723

What do you have for `NC(=O)NCC#Cc1ccc2c(c1)[C@]1(C(=O)N2)[C@H](c2ccc(OCCO)cc2)N2[C@H](c3ccccc3)[C@H](c3ccccc3)OC(=O)[C@H]2[C@@H]1C(=O)N1CCCCCCC1` ?
0.501

What do you have for `CCOC(=O)C1=CC[C@@H](c2ccc(N(CC)CC)cc2)N(S(=O)(=O)c2ccc(C)cc2)[C@H]1c1ccc([N+](=O)[O-])cc1` ?
0.357

What do you have for `O=C1N(CCS(=O)(=O)c2ccccc2)Cc2ccccc2C[C@@]12COC(c1ccc(OCCCO)cc1)=N2` ?
0.82

What do you have for `OCc1ccc(-c2cc[n+](Cc3cccc(OC(F)(F)F)c3)cc2)cc1` ?
0.596

What do you have for `COC(=O)[C@H]1N=C(c2ccc(OCCCO)cc2)O[C@H]1c1ccccc1CN=[N+]=[N-]` ?
0.62

What do you have for `COCCOC(=O)N1C(=O)[C@@]2(c3cc(C#CCCO)ccc31)[C@H](C(=O)N1CCc3cc(OC)c(OC)cc3C1)[C@H]1C(=O)O[C@H](c3ccccc3)[C@H](c3ccccc3)N1[C@@H]2c1ccc(OCCO)cc1` ?
0.726

###

Test: optical density shifts of acrAB sulA E. coli – strain DRC41, OD650, 48 h, E. coli filamentation inducer project, primary screen (AID 1152);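 note: E. coli MC1000 strain DRC41 lacking acrAB efflux pump and sulA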
Settings: higher = more signal, called active from +8 up or from −8 down
Please assign a class to every record based on measured z-score, with ranges bucket A (below -0.3), bucket B (-0.3 to below 1), bucket C (1 or more)

Into which bin does this molecule go? `[N-]=[N+]=NCc1ccccc1[C@H]1OC(c2ccc(OCCCO)cc2)=N[C@@]1(Cc1ccccc1N=[N+]=[N-])C(=O)N1CCCCC1`
bucket B

What do you have for `CC(=O)NCCCC[C@@H]1NC(=O)[C@@H]2C[C@H](C(=O)NCCCC[N+](C)(C)C)[C@H](c3cccc(OCCO)c3)N2C1=O` ?
bucket A

What do you have for CCOC(=O)C1=CCC(c2cccc(Cl)c2)O1 (stereo not drawn) ?
bucket A

What do you have for `CN(C)CCCCNC(=O)[C@H]1C[C@H]2C(=O)N[C@@H](CCCC[N+](C)(C)C)C(=O)N2[C@H]1c1cccc(OCCO)c1` ?
bucket B

What do you have for `COCCCNC(=O)[C@]1(CCS(=O)(=O)c2ccccc2)N=C(c2ccc(OCCCO)cc2)O[C@@H]1c1ccccc1` ?
bucket B

What do you have for `[N-]=[N+]=NCc1ccccc1[C@H]1OC(c2ccc(OCCCO)cc2)=N[C@@]1(Cc1ccccc1N=[N+]=[N-])C(=O)NCCN1CCOCC1` ?
bucket B

What do you have for O=C1C2C=CC(C(O)c3ccccn3)N(Nc3ccccc3)C2C(=O)N1c1ccccc1 (stereo not drawn) ?
bucket A

What do you have for `COC(=O)[C@]1(Cc2ccccc2CN=[N+]=[N-])N=C(c2ccc(OCCCO)cc2)O[C@@H]1c1ccccc1CN=[N+]=[N-]` ?
bucket C

What do you have for COc1cc(C(O)C2C=CC3C(=O)N(C)C(=O)C3N2NC(=O)OC(C)(C)C)cc(OC)c1OC (stereo not drawn) ?
bucket A

What do you have for CC(C)c1ccc(NN2C(C(O)c3cccs3)C=CC3C(=O)N(c4ccccc4)C(=O)C32)cc1 (stereo not drawn) ?
bucket A

What do you have for `CC(C)(C)OC(=O)CC[C@]1(C(=O)N2CCCCC2)N=C(c2ccc(OCCCO)cc2)O[C@H]1c1ccccc1CN=[N+]=[N-]` ?
bucket C

What do you have for `CCC[C@@H]1C[C@@]1(CCC)[C@@H](NC(=O)c1cccs1)c1ccc(Cl)cc1` ?
bucket B

What do you have for `Cc1ccc(S[C@]2(C(=O)NCc3ccccc3)CC(=O)N(C3Cc4ccccc4C3)[C@@H]2c2ccc(CO)cc2I)cc1` ?
bucket C

What do you have for O=C1OCC=C[C@H]2OC34C=CCN(CCN5CCOCC5)C(=O)[C@H]3N(CCCCCO)C(=O)[C@@H]4[C@@H]12 (stereo partly drawn) ?
bucket A

What do you have for `COc1ccc([Si](C)(C)[C@@H]2[C@@H](CCO)O[C@]3(C(=O)N(Cc4ccccc4)c4ccc(N5C(=O)COc6ccccc65)cc43)[C@H]2C)cc1` ?
bucket C

What do you have for `CCOC(=O)C[C@H]1[C@H](OC(=O)c2cc3ccccc3oc2=O)[C@@H](NC(=O)c2ccc3ccccc3n2)c2cc(OCCCO)ccc2N1C(=O)c1ccc2ccccc2n1` ?
bucket C

What do you have for `C/C=C/[C@@H](CCn1cc([C@H](O)c2ccccc2)nn1)[Si](C)(C)c1ccc(OC)cc1` ?
bucket B

What do you have for `CCCCC(=C=CC[C@H](O)c1cccc(OCCO)c1)C[C@H](O)COCc1ccccc1` ?
bucket B

What do you have for CC(C)N1CC=CC23O[C@@H]4C=CCOC(=O)[C@@H]4[C@H]2C(=O)N(CCCCCCO)[C@@H]3C1=O (stereo partly drawn) ?
bucket B

What do you have for C=CCC(OC(C)=O)[C@@H]1[C@@H](N(Cc2cc3ccccc3o2)C(=O)Cc2ccc(OC)cc2)c2cc(OCCCO)ccc2N1C(=O)c1ccc(-c2ccccc2)cc1 (stereo partly drawn) ?
bucket C

What do you have for `C=CCOC(=O)[C@@H]1[C@H]2C(=O)O[C@H](c3ccccc3)[C@H](c3ccccc3)N2[C@H](c2ccc(OCCOC(=O)[C@H]3C[C@H]4C(=O)N[C@@H](Cc5ccccc5)C(=O)N4[C@H]3c3cccc(OCCO)c3)cc2)[C@@]12C(=O)Nc1ccc(I)cc12` ?
bucket A

What do you have for `COC(=O)C(CC#Cc1ccc2c(c1)[C@]1(C(=O)N2)[C@H](c2ccccc2OCCO)N2[C@H](c3ccccc3)[C@H](c3ccccc3)OC(=O)[C@H]2[C@@H]1C(=O)Nc1nc2ccccc2s1)C(=O)OC` ?
bucket A

What do you have for `O=C(N1CCOCC1)[C@@]1(CCS(=O)(=O)c2ccccc2)COC(c2ccc(OCCCO)cc2)=N1` ?
bucket C

What do you have for C=CCC(OC(C)=O)[C@@H]1[C@@H](N(Cc2cccc3ccccc23)C(=O)Cc2ccc(F)cc2)c2cc(OCCCO)ccc2N1C(=O)Cc1ccc(OC)cc1 (stereo partly drawn) ?
bucket C

What do you have for `COC(=O)C(CC#Cc1ccc2c(c1)[C@]1(C(=O)N2)[C@H](C(=O)N2CCc3cc(OC)c(OC)cc3C2)[C@H]2C(=O)O[C@H](c3ccccc3)[C@H](c3ccccc3)N2[C@@H]1c1ccc(OCCO)cc1)C(=O)OC` ?
bucket B

What do you have for `COCCOC(=O)N1C(=O)[C@@]2(c3cc(C#CCCO)ccc31)[C@H](C(=O)N1CCc3cc(OC)c(OC)cc3C1)[C@H]1C(=O)O[C@H](c3ccccc3)[C@H](c3ccccc3)N1[C@@H]2c1ccc(OCCO)cc1` ?
bucket C

What do you have for Cc1ccccc1C(O)C1C=CC2C(=O)N(C)C(=O)C2N1Nc1ccc([N+](=O)[O-])cc1[N+](=O)[O-] (stereo not drawn) ?
bucket A

Hello, the source for this data is PubChem BioAssay, in case you need it.
